- assay.target: EGFR L858R/T790M/C797S (Homo sapiens, UniProt P00533, C797S/L858R/T790M)
- Sequence (P00533 25-1210 T790M/C797S/L858R): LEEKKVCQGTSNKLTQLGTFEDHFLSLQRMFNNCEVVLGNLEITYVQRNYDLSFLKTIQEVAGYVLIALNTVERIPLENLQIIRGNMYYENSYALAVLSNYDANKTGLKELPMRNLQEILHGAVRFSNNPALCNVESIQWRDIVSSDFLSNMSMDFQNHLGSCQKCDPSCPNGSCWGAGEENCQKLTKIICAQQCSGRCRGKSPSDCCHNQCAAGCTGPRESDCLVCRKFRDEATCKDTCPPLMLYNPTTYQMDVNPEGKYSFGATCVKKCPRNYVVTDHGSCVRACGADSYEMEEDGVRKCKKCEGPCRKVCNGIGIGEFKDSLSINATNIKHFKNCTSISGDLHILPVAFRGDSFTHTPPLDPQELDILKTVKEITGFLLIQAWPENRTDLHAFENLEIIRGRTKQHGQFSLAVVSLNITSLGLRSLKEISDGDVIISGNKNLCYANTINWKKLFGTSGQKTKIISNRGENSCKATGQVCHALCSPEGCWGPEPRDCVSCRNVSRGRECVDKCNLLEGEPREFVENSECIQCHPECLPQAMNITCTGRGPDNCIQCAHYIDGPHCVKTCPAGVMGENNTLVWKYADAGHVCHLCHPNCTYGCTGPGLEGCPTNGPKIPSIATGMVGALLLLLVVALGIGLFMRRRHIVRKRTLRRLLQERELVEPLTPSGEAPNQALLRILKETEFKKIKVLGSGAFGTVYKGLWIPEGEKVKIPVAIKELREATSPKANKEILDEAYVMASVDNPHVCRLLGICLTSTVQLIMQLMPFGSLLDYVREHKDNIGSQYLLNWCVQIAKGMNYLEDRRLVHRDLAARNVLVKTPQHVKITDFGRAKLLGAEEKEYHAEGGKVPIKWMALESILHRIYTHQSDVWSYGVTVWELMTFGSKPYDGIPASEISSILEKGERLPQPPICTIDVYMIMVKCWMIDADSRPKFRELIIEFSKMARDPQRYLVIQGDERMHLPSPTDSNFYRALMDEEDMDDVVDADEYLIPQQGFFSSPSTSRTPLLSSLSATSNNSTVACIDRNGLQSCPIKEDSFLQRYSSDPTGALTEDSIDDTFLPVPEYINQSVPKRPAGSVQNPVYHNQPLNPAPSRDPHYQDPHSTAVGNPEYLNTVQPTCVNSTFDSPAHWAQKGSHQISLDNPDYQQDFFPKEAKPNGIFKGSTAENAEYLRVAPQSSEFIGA
- run.description: Biochemical EGFR kinase inhibition assay (Lance Ultra TR-FRET), triple mutant L858R/T790M/C797S
- measurement.context: Km ATP; read-out: IC50 L858R/T790M/C797S (nM) Km ATP
measurement.name: IC50
Kindly format the answer as number then unit.

Previously resolved entries follow.
CN1CCN(c2cc(Nc3ccnc(-c4cnn(S(=O)(=O)C5CC5)c4)n3)ncc2C#Cc2cnn(C)c2)CC1 [Example 1]; 5.4 nM
CC(=O)N1CCC(n2cc(C#Cc3cnc(Nc4ccnc(-c5cnn(S(=O)(=O)C6CC6)c5)n4)cc3N[C@H]3CC[C@@H](O)CC3)cn2)CC1 [Example 109]; 0.7 nM
CC(=O)N1CCC(n2cc(C#Cc3cnc(Nc4ccnc(-c5cnn(S(=O)(=O)C6CC6)c5)n4)cc3N3CCC(C)(CO)CC3)cn2)CC1 [Example 110]; 0.6 nM
CN(C)C[C@H]1CC[C@H](COc2cc(Nc3ccnc(-c4cnn(S(=O)(=O)C5CC5)c4)n3)ncc2C#Cc2cccnc2)CC1 [Example 62]; 0.1 nM

Q: Using known records, supply IC50 for Cn1cc(C#Cc2cnc(Nc3ccnc(-c4cnn(S(=O)(=O)C5CC5)c4)n3)cc2N[C@H]2CC[C@@H](O)CC2)cn1 [Example 41]
Ans: 0.2 nM

Q: Input CC1(CO)CCN(c2cc(Nc3ccnc(-c4cnn(S(=O)(=O)C5CC5)c4)n3)ncc2C#Cc2cnn(C3CCOCC3)c2)CC1 [Example 95] , output reported IC50.
Ans: 0.9 nM

Q: Give me measured IC50, please, for this compound: CC(=O)N1CCC(n2cc(C#Cc3cnc(Nc4ccnc(-c5cnn(S(=O)(=O)C6CC6)c5)n4)cc3N3CCCC(O)C3)cn2)CC1 (stereo not drawn) [Example 114]
Ans: 0.6 nM

Q: Using known records, supply IC50 for CN(C)Cc1ccc(CNc2cc(Nc3ccnc(-c4cnn(S(=O)(=O)C5CC5)c4)n3)ncc2C#Cc2cnn(CCF)c2)cc1 [Example 51]
Ans: 3.2 nM

Q: Answer with the recorded IC50 of CN(C)CCCn1cc(C#Cc2cnc(Nc3ccnc(-c4cnn(S(=O)(=O)C5CC5)c4)n3)cc2N[C@H]2CC[C@@H](O)CC2)cn1 [Example 123] only.
Ans: 0.1 nM
